I'd appreciate it if you could supply self-cleavage values for the items below.
B1: HDV Ribozyme (parent)
chain: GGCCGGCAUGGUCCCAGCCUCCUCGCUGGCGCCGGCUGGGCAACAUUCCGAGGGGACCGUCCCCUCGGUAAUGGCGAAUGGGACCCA

Variants of: B1
test_description: self-cleavage, relative activity (ratio to wild type); higher = more cleavage; co-transcriptional
Give bare numbers.

Here's what some known entries look like.
variant_identifier | readout_value
C32U U79G | 0.504
G52A C84U | 0.691
G31A C49G | 0.34

Return reported self-cleavage values for all items listed beneath this line.
1. G25A A87G
2. G52A G76A
3. C24A A42C
4. C75A G76U
5. C13A G17A
6. U27A C62U

(A)
[0.163, 1.05, 0.0639, 0.289, 0.0639, 0.935]

Return reported self-cleavage values for all items listed beneath this line.
1. C24G U69A
2. C3A G6C

(A)
1. 0.204
2. 0.0282

Return reported self-cleavage values for all items listed beneath this line.
1. G1C G17C
2. C3G U60C
3. U27G G81U
4. U23G C26A
5. C22U C24U

(A)
0
0.748
0.643
0.739
0.22
